- test-target: GSK3A (Homo sapiens, UniProt P49840)
- Sequence (P49840 whole entry): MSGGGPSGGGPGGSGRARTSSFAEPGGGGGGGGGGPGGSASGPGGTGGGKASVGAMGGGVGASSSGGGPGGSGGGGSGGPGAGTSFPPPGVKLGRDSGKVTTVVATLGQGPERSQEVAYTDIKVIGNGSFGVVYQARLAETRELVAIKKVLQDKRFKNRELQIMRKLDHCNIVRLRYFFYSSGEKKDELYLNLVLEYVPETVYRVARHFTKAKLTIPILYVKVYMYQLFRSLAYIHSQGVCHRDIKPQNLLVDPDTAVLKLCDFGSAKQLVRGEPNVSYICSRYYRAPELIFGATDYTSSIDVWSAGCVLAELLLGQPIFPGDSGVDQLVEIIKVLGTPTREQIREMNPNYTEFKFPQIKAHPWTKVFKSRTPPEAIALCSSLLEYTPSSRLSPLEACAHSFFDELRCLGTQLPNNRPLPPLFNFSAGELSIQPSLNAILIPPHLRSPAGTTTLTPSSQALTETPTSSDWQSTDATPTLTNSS
- method: biochemical
- Parameters: species or system HEK293/K-562/placenta mixed human extract; Kinobeads chemoproteomic competition binding, quantified by TMT LC-MS/MS, dose response up to 20 uM
pIC50: −log10 of the molar value.
experimental-readout: pIC50

Query string: # query: pIC50 of entry COc1ccccc1-c1n[nH]c2nc(N[C@H]3CC[C@H](NS(=O)(=O)CCC(F)(F)F)CC3)nc(OC)c12
Result string: ≤ 4.70

====

- test-target: MAP3K3 (Homo sapiens)
- Sequence (Q99759 whole entry): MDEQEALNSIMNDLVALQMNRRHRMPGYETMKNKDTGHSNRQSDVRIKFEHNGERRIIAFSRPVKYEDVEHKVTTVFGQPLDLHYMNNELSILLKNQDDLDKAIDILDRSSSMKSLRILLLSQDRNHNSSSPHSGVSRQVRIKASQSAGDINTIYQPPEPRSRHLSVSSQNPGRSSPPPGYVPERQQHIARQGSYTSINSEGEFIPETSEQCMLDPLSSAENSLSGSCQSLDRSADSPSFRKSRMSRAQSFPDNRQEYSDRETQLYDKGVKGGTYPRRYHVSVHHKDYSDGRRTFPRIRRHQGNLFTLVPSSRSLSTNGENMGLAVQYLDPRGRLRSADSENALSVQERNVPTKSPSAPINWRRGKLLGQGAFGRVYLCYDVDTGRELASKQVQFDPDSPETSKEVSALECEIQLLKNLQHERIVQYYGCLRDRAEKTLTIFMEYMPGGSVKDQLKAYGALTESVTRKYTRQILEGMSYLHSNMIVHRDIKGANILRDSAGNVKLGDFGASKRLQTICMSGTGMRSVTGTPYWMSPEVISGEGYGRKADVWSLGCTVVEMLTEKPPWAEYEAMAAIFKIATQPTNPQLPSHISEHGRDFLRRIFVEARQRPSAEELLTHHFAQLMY
- method: biochemical
- Set-up: species or system HEK293/K-562/placenta mixed human extract; Kinobeads chemoproteomic competition binding, quantified by TMT LC-MS/MS, dose response up to 20 uM
experimental-readout: IC50

Query string: Data request, read-out IC50, for COc1nc(N[C@H]2CC[C@H](NS(=O)(=O)CC(C)C)CC2)nc2[nH]nc(N3CCOC[C@H]3C)c12
Result string: ≥ 20 µM

The values you see were collected from paper PMC6407917.
